- Tested on: Escherichia coli TOP10;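 note: peptides expressed intracellularly from a pBAD plasmid library in pooled LB shake-flask culture, induced with 0.3% L-arabinose, DNA abundance read by NGS, three biological replicates, DESeq2 with apeglm shrinkage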
- assay-details: shrunken log2 fold change of peptide-encoding DNA abundance (4.5 h post-induction vs induction); higher = less antimicrobial activity (less host growth inhibition)
- condition-label: time post-induction: 4.5 h; library: site-saturation at positions 5, 18, 19, 20
sequences and their reported shrunken log2 fold change
value-kind: shrunken log2 fold change

RRIRYRPPRLPRPRPRPMNEPRP -0.103
RRIRWRPPRLPRPRPRPLHWPRP 0.296
RRIRDRPPRLPRPRPRPAKQPRP 0.181
RRIRIRPPRLPRPRPRPSKCPRP -0.788
RRIRIRPPRLPRPRPRPFCDPRP -0.0745
RRIRTRPPRLPRPRPRPVWFPRP 0.0412
RRIRPRPPRLPRPRPRPGNYPRP -0.36
RRIRSRPPRLPRPRPRPDAQPRP 0.406
RRIRDRPPRLPRPRPRPFLDPRP 0.431
RRIRNRPPRLPRPRPRPSVVPRP -0.0462
RRIRDRPPRLPRPRPRPNWFPRP -0.0729
RRIRMRPPRLPRPRPRPVNTPRP 0.0779
RRIRFRPPRLPRPRPRPDEDPRP 0.181
RRIRLRPPRLPRPRPRPAKVPRP -0.0169
RRIRMRPPRLPRPRPRPIWMPRP -0.101

Source: the supplement of paper PMC9112550
